- Tested on: U2OS
- experiment_notes: Multiplex assay against U2OS
- Assay type: toxicity, cell-based
- recorded_conditions: human, 48 h, 1 µM, compound concentration 1 uM, replicate 1
measured_quantity: Population Fragmented Nuclei (%)
The answer is to be given in %; state only the numeric part.

Below, 4 compounds whose answers are already recorded.
N#Cc1c(Oc2cccc(OS(=O)(=O)CCCC(F)(F)F)c2)cccc1C(F)(F)F
17
CN1CCN(c2cc(-c3ccccc3)nc(N)n2)CC1
21
COC[C@@H](c1ccc(C(F)(F)F)cc1)N1CCN(C2(C)CCN(C(=O)c3c(C)ncnc3C)CC2)C[C@@H]1C.O=C(O)/C=C\C(=O)O [VICRIVIROC MALEATE]
20
CC[C@@H](C)Nc1nc(C)nc2c(-c3ccc(OC)nc3C)c(C)nn12
16

Attention now shifts to the item below.
Short answer for "CC(C)(C)c1cc(NC(=O)Nc2ccc(-c3cn4c(n3)sc3cc(OCCN5CCOCC5)ccc34)cc2)no1" : Population Fragmented Nuclei (%) was 21

----------
- Test system: Fibroblast
- experiment_notes: Multiplex assay against human fibroblast
- Type: toxicity, cell-based
- recorded_conditions: 24 h, 1 µM, compound concentration 1 uM, replicate 2
measured_quantity: Population Tubulin-Different-Phenotype (%)
The answer is to be given in %; state only the numeric part.

COc1ccccc1N1CCN(C[C@@H](C(=O)NC(C)(C)C)c2ccccc2)CC1.Cl.Cl
50
CN1CCN(c2cc(-c3ccccc3)nc(N)n2)CC1
50
CC(C)c1noc(N2CCC(COc3ccc(-c4ccc(S(C)(=O)=O)cc4)nc3)CC2)n1
41
O=C1[C@H](Cc2ccc(O)cc2)N2C(=O)CCN(C(=O)NCc3ccccc3)[C@H]2CN1Cc1cccc2ccccc12
58
O=C(CCCc1ccccc1)Nc1nc2ccccc2c(=O)s1
35
C[C@H](N)COC(=O)[C@@H](CCCCN)NC(=O)Cc1c(-c2ccc3ccccc3c2)[nH]c2c1ccc1ccccc12
39
CC(=O)Nc1cccc2c1c(Sc1ccc(Cl)cc1)c(C)n2CC(=O)O
53
CCCCCC(O)/C=C/[C@H]1C(=O)CC(O)C1C/C=C\CCCC(=O)O (stereo partly specified)
47

Assay Fibroblast, sample "N#Cc1c(Oc2cccc(OS(=O)(=O)CCCC(F)(F)F)c2)cccc1C(F)(F)F" , Population Tubulin-Different-Phenotype (%) read: 57

Assay Fibroblast, sample "CCc1cc2cc(NS(=O)(=O)c3ccc(C#N)cc3)ccc2n(CC)c1=O" , Population Tubulin-Different-Phenotype (%) read: 51

Assay Fibroblast, sample "N#Cc1cc(F)cc(-c2nc(-c3ccc(F)cn3)no2)c1" , Population Tubulin-Different-Phenotype (%) read: 58

Assay Fibroblast, sample "CN[C@@H](C)C(=O)N[C@H](C(=O)N1CCC[C@H]1C(=O)Nc1snnc1-c1ccccc1)C1CCCCC1" , Population Tubulin-Different-Phenotype (%) read: 61

Assay Fibroblast, sample "Cc1cnc(-c2cc(N3CCN(C(=O)CCS(C)(=O)=O)CC3)ncc2Cl)c(C)c1" , Population Tubulin-Different-Phenotype (%) read: 61

Assay Fibroblast, sample Br.CS(=O)(=O)Nc1c(O)ccc2c1CCCC2C1=NCCN1 (stereo unspecified) , Population Tubulin-Different-Phenotype (%) read: 41

Assay Fibroblast, sample "CC(C)COc1ccc(CNC(=O)N(Cc2ccc(F)cc2)C2CCN(C)CC2)cc1" , Population Tubulin-Different-Phenotype (%) read: 76

Assay Fibroblast, sample "CC[C@@H](C)Nc1nc(C)nc2c(-c3ccc(OC)nc3C)c(C)nn12" , Population Tubulin-Different-Phenotype (%) read: 61

----------
- Test system: U2OS
- experiment_notes: Multiplex assay against U2OS
- Type: toxicity, cell-based
- recorded_conditions: human, 12 h, 10 µM, compound concentration 10 uM, replicate 1
measured_quantity: Total Cell Count
No unit in the answer, only the number.

Below, 3 compounds whose answers are already recorded.
CCc1cc2cc(NS(=O)(=O)c3ccc(C#N)cc3)ccc2n(CC)c1=O
220
Cl.NCCc1ccc(O)c(O)c1 [DOPAMINE HYDROCHLORIDE]
204
O=C(CCCc1ccccc1)Nc1nc2ccccc2c(=O)s1
270

Short answer for "Cc1onc(-c2ccccc2Cl)c1C(=O)N(C)c1ccc(Cl)cc1" : Total Cell Count was 244

Short answer for "COc1cccc2c1c(NS(=O)(=O)c1ccc(Cl)s1)nn2Cc1cccc(CNC(=O)C(C)(C)O)c1" : Total Cell Count was 264

Short answer for O=C(NCCN1CCC(n2c(=O)[nH]c3cc(Cl)ccc32)CC1)c1ccc(F)cc1 [HALOPEMIDE] : Total Cell Count was 244

Short answer for "N#Cc1c(Oc2cccc(OS(=O)(=O)CCCC(F)(F)F)c2)cccc1C(F)(F)F" : Total Cell Count was 222

Short answer for Br.CS(=O)(=O)Nc1c(O)ccc2c1CCCC2C1=NCCN1 (centres undefined) : Total Cell Count was 215

Short answer for "CN(C)C(=O)Cn1cc(-c2ccc(-c3cncc4ccccc34)cc2)cn1" : Total Cell Count was 205

Short answer for Cl.N=C(N)NC(=O)Cc1c(Cl)cccc1Cl [GUANFACINE HYDROCHLORIDE] : Total Cell Count was 280

Short answer for "CC(/C=C1\SC(=S)N(CCCC(=O)Nc2ccc(C(=O)O)c(O)c2)C1=O)=C\c1ccccc1" : Total Cell Count was 241

Short answer for CC[C@@H](C)Nc1nc(C)nc2c(-c3ccc(OC)nc3C)c(C)nn12 [PEXACERFONT] : Total Cell Count was 265

Short answer for "CCCCC(=O)N(Cc1ccc(-c2ccccc2-c2nnn[nH]2)cc1)[C@H](C(=O)O)C(C)C" : Total Cell Count was 218

Short answer for "O=C1[C@H](Cc2ccc(O)cc2)N2C(=O)CCN(C(=O)NCc3ccccc3)[C@H]2CN1Cc1cccc2ccccc12" : Total Cell Count was 207

Short answer for "Cc1cnc(-c2cc(N3CCN(C(=O)CCS(C)(=O)=O)CC3)ncc2Cl)c(C)c1" : Total Cell Count was 258

Short answer for "CN1CCN(c2cc(-c3ccccc3)nc(N)n2)CC1" : Total Cell Count was 252

Short answer for Cc1c(CC(=O)O)c2cccnc2n1Cc1ccc(S(C)(=O)=O)cc1C(F)(F)F [FEVIPIPRANT] : Total Cell Count was 287

Short answer for CN[C@@H](C)C(=O)N[C@H](C(=O)N1CCC[C@H]1C(=O)Nc1snnc1-c1ccccc1)C1CCCCC1 [GDC-0152] : Total Cell Count was 208

Short answer for CC(C)(C)c1cc(NC(=O)Nc2ccc(-c3cn4c(n3)sc3cc(OCCN5CCOCC5)ccc34)cc2)no1 [QUIZARTINIB] : Total Cell Count was 197

----------
Some molecules, each annotated with its measured Population Pyknosed Nuclei (%).
- Tested on: U2OS
- experiment_notes: Multiplex assay against U2OS
- Assay type: toxicity, cell-based
- recorded_conditions: human, 12 h, 1 µM, compound concentration 1 uM, replicate 1
The answer is to be given in %; state only the numeric part.

Short answer for Cc1c(CC(=O)O)c2cccnc2n1Cc1ccc(S(C)(=O)=O)cc1C(F)(F)F [FEVIPIPRANT] : Population Pyknosed Nuclei (%) was 9

Short answer for "O=C1[C@H](Cc2ccc(O)cc2)N2C(=O)CCN(C(=O)NCc3ccccc3)[C@H]2CN1Cc1cccc2ccccc12" : Population Pyknosed Nuclei (%) was 12

Short answer for "CCCCC(=O)N(Cc1ccc(-c2ccccc2-c2nnn[nH]2)cc1)[C@H](C(=O)O)C(C)C" : Population Pyknosed Nuclei (%) was 8

Short answer for "CN1CCN(c2cc(-c3ccccc3)nc(N)n2)CC1" : Population Pyknosed Nuclei (%) was 6

Short answer for CCCCC1=NC2(CCCC2)C(=O)N1Cc1ccc(-c2ccccc2-c2nnn[nH]2)cc1 [IRBESARTAN] : Population Pyknosed Nuclei (%) was 7

Short answer for "COc1ccccc1N1CCN(C[C@@H](C(=O)NC(C)(C)C)c2ccccc2)CC1.Cl.Cl" : Population Pyknosed Nuclei (%) was 5

Short answer for "N#Cc1cc(F)cc(-c2nc(-c3ccc(F)cn3)no2)c1" : Population Pyknosed Nuclei (%) was 10

Short answer for "CN(C)C(=O)Cn1cc(-c2ccc(-c3cncc4ccccc34)cc2)cn1" : Population Pyknosed Nuclei (%) was 9

Short answer for Cl.NCCc1ccc(O)c(O)c1 [DOPAMINE HYDROCHLORIDE] : Population Pyknosed Nuclei (%) was 9

----------
- Test system: HEK-293T
- experiment_notes: Multiplex assay against HEK293T
- Format: toxicity, cell-based
- recorded_conditions: human, 12 h, 1 µM, compound concentration 1 uM, replicate 2
Consider the following partition of reported Population Hoechst High Intensity Objects (%) into named classes: bottom range: < 6%; center range: ≥ 6% and < 10%; top range: ≥ 10%

These solved cases illustrate the format of a correct answer.
Cc1cnc(-c2cc(N3CCN(C(=O)CCS(C)(=O)=O)CC3)ncc2Cl)c(C)c1
center range
CC(=O)Nc1cccc2c1c(Sc1ccc(Cl)cc1)c(C)n2CC(=O)O [AZD1981]
center range
NCCc1cn(S(=O)(=O)c2c(Cl)nc3sccn23)c2ccccc12.O=C(O)C(=O)O
center range
N#Cc1c(Oc2cccc(OS(=O)(=O)CCCC(F)(F)F)c2)cccc1C(F)(F)F
top range
Cl.N=C(N)NC(=O)Cc1c(Cl)cccc1Cl [GUANFACINE HYDROCHLORIDE]
top range
Cc1c(CC(=O)O)c2cccnc2n1Cc1ccc(S(C)(=O)=O)cc1C(F)(F)F [FEVIPIPRANT]
center range

Prompt line: Which class does COC[C@@H](c1ccc(C(F)(F)F)cc1)N1CCN(C2(C)CCN(C(=O)c3c(C)ncnc3C)CC2)C[C@@H]1C.O=C(O)/C=C\C(=O)O [VICRIVIROC MALEATE] fall in?
Response line: bottom range

Prompt line: Which class does CC[C@@H](C)Nc1nc(C)nc2c(-c3ccc(OC)nc3C)c(C)nn12 [PEXACERFONT] fall in?
Response line: center range

Prompt line: Which class does Cc1sc2c(c1C)C(c1ccc(Cl)cc1)=N[C@@H](CC(=O)NCCCCCCCCNC(=O)COc1cccc3c1C(=O)N(C1CCC(=O)NC1=O)C3=O)c1nnc(C)n1-2 (stereo partly drawn) fall in?
Response line: top range

Prompt line: Which class does "Cc1noc(-c2ccc(-c3ccc(CC(=O)O)cc3)cc2)c1NC(=O)O[C@H](C)c1ccccc1Cl" fall in?
Response line: top range

Prompt line: Which class does "Cc1cccc(NC(=O)CN2CCC(c3ccccn3)CC2)c1.Cl.Cl" fall in?
Response line: bottom range

Prompt line: Which class does CC(C)COc1ccc(CNC(=O)N(Cc2ccc(F)cc2)C2CCN(C)CC2)cc1 [PIMAVANSERIN] fall in?
Response line: top range

Prompt line: Which class does "CCCOc1ccc2[nH]cc(C3=CCNCC3)c2n1.Cl" fall in?
Response line: bottom range
